From: ChEMBL document CHEMBL3091447

Species on record: Homo sapiens
Assay: Binding affinity to WT 27-mer Bcl-2 G-quadruplex DNA (unknown origin) at 40 uM by electrospray ionization mass spectra analysis
Calls of active or inactive are those of the source. No cut-off for these calls is given here.
measured_attribute: Activity

compound_smiles=C[n+]1ccc(-c2c3nc(cc4ccc(cc5nc(c(-c6cc[n+](C)cc6)c6ccc2[nH]6)C=C5)[nH]4)C=C3)cc1 observed=inactive
compound_smiles=C[n+]1ccc(-c2c3nc(cc4ccc(cc5nc(cc6ccc2[nH]6)C=C5)[nH]4)C=C3)cc1 observed=inactive
compound_smiles=C[n+]1ccc(-c2c3nc(c(-c4cc[n+](C)cc4)c4ccc([nH]4)c(-c4cc[n+](C)cc4)c4nc(cc5ccc2[nH]5)C=C4)C=C3)cc1 observed=Active
compound_smiles=C[n+]1ccc(-c2c3nc(cc4ccc([nH]4)c(-c4cc[n+](C)cc4)c4nc(cc5ccc2[nH]5)C=C4)C=C3)cc1 observed=Active
